These measurements were taken from patent US7001588B2.

# targetOrSystem: c-MYC G-quadruplex (PU27 c-MYC sequence)
# methodDescription: G-quadruplex polymerase stop assay, PU27 c-MYC template
# Assay type: biochemical
# conditionSummary: Taq polymerase stop product, PU27 c-MYC template, 55° C.; read-out: c-MYC (ED50 μM)

- molSmiles: "C[n+]1ccc(-c2c3nc(c(-c4cc[n+](C)cc4)c4ccc([nH]4)c(-c4cc[n+](C)cc4)c4ccc([nH]4)c(-c4cc[n+](C)cc4)c4nc2C=C4)C=C3)cc1"
  EC50 [µM]: 0.99
- molSmiles: "C[n+]1cccc(-c2c3nc(c(-c4ccc[n+](C)c4)c4ccc([nH]4)c(-c4ccc[n+](C)c4)c4nc(c(-c5ccc[n+](C)c5)c5ccc2[nH]5)C=C4)C=C3)c1"
  EC50 [µM]: 2.34

----------
# targetOrSystem: human telomeric G-quadruplex
# methodDescription: G-quadruplex polymerase stop assay, human telomeric template
# Format: biochemical
# conditionSummary: Taq polymerase stop product, four TTAGGG repeats template, 37° C.; read-out: Huam Telomeric (ED50 μM)

- molSmiles: "C[n+]1ccc(-c2c3nc(c(-c4cc[n+](C)cc4)c4ccc([nH]4)c(-c4cc[n+](C)cc4)c4ccc([nH]4)c(-c4cc[n+](C)cc4)c4nc2C=C4)C=C3)cc1"
  endpointUnit: "µM"
  EC50: 18.9
- molSmiles: "C[n+]1cccc(-c2c3nc(c(-c4ccc[n+](C)c4)c4ccc([nH]4)c(-c4ccc[n+](C)c4)c4nc(c(-c5ccc[n+](C)c5)c5ccc2[nH]5)C=C4)C=C3)c1"
  endpointUnit: "µM"
  EC50: 19.5
